# method-notes: antimalarial activity against Dd2 strain (AID 2302)
# assay-setup: P. falciparum Dd2 in RBCs, LDH growth readout, 72 h; at 2 µM; active compounds read high
# cutoff 70% applies to growth inhibition; >= gives TRUE, < gives FALSE

compound	class-name
CO/C(=C\C=C\c1cc2cc(Cl)c(Cl)cc2[nH]1)C(=O)NC1C[C@H]2CC[C@@H](C1)N2C (some centres not stated)	FALSE
COc1ccc(NC(=O)[C@H](CC(C)C)Nc2cc(C)nc(NCC3CCCCC3)n2)cc1	TRUE
O=c1cc(-c2cccc(C(F)(F)F)c2)nc(Nc2ccc(Cl)c(Cl)c2)[nH]1	TRUE
O=C(NC1CCCCC1)N(Cc1cccc(-c2ccc(CNCc3ccc4c(c3)OCO4)cc2)c1)C1CCN(Cc2ccccc2)CC1	FALSE
Cc1cccc2[nH]c(-c3ccc(-c4ccc(CNCCc5ccncc5)cc4)cc3)nc12	TRUE
Cc1noc(C)c1-c1cccc(CNCc2ccc(-c3ccc(-c4nc5ccc(C(F)(F)F)cc5[nH]4)s3)cc2)c1	TRUE
O=C(Nc1cccc(-c2cccc(CN3CCCC3)c2)c1)c1ccc(Cl)cc1	FALSE
O=C(Nc1cccc(CN2CCCN(CCc3ccccc3)CC2)c1)c1cc2ccccc2s1	FALSE
Cc1cc(CN2CC[C@H](NC(=O)c3ccc(Cl)c(Cl)c3)C2)ccc1OC1CCN(C)C1 (some centres not stated)	FALSE
O=C(Nc1ccc(Br)c(Cl)c1)c1cc([N+](=O)[O-])cc2cn[nH]c12	FALSE
COc1ccccc1CNC(=O)c1cc(Br)cc(N2CCN(c3ccncc3)CC2)c1	TRUE
